target: UniProt:P47747; assay: Histamine H2 receptor antagonistic activity on the isolated spontaneously beating guinea pig right atrium; format: functional, tissue-based, Cardiac atrium; details: read-out: pA2 (converted)
Sequence (P47747 whole entry): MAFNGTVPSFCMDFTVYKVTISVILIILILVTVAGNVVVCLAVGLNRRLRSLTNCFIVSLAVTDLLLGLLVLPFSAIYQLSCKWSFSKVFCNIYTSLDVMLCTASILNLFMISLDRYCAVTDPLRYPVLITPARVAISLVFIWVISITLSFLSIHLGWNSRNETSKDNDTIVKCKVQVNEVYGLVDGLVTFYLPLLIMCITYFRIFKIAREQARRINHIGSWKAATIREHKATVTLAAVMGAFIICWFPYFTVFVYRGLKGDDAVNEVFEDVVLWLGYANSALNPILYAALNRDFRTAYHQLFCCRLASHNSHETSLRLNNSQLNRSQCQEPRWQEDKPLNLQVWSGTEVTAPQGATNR
Rule: measured Kb below 40 nM gets true (1); anything equal to or greater than 40 nM gets false (0).

Ask: Field: below-cutoff. Rule: recorded Kb strictly less than 40 nM. Subject: N#CN/C(=N\CCNC(=O)c1c2ccccc2nc2ccccc12)NCCCOc1cccc(CN2CCCCC2)c1
Reply: false (0)

Ask: Now consider CN/C(=C/[N+](=O)[O-])NCCSCc1ccc(CN(C)C)o1 and answer again.
Reply: false (0)

Ask: Now consider CC(=O)c1ccc2n(c1=O)[C@H](COC(=O)CCC(=O)NCCCOc1cccc(CN3CCCCC3)c1)Cc1c-2[nH]c2ccccc12 and answer again.
Reply: false (0)

Ask: Now consider N#CN/C(=N\CCN)NCCCOc1cccc(CN2CCCCC2)c1 and answer again.
Reply: false (0)

Ask: Now consider N#CN/C(=N\CCCCNC(=O)c1ccc(C2c3ccc(O)cc3OC3=CC(=O)C=CC32)c(C(=O)O)c1)NCCCOc1cccc(CN2CCCCC2)c1 (stereo not given) and answer again.
Reply: false (0)

Ask: Now consider N#CN/C(=N\CCNC(=O)c1ccc(C(=O)O)c(C2c3ccc(O)cc3OC3=CC(=O)C=CC32)c1)NCCCOc1cccc(CN2CCCCC2)c1 (stereo not given) and answer again.
Reply: false (0)

Ask: Now consider NC(N)=Nc1nc(CSCCC(N)=NS(N)(=O)=O)cs1 and answer again.
Reply: true (1)

Ask: Now consider N#CN/C(=N\CCNC(=O)CCCCCNc1ccc([N+](=O)[O-])c2nonc12)NCCCOc1cccc(CN2CCCCC2)c1 and answer again.
Reply: true (1)

Ask: Now consider N#CN/C(=N\CCCCNC(=O)c1ccc(C(=O)O)c(C2c3ccc(O)cc3OC3=CC(=O)C=CC32)c1)NCCCOc1cccc(CN2CCCCC2)c1 (stereo not given) and answer again.
Reply: false (0)

Ask: Now consider N#CN/C(=N\CCCCCCNc1ccc([N+](=O)[O-])c2nonc12)NCCCOc1cccc(CN2CCCCC2)c1 and answer again.
Reply: true (1)

Ask: Now consider N#CN=C(NCCCCCCCCNc1ccc([N+](=O)[O-])c2n[o+][n-]c12)NCCCOc1cccc(CN2CCCCC2)c1 and answer again.
Reply: true (1)

Ask: Now consider N#CN/C(=N\CCNC(=O)c1ccc(C2c3ccc(O)cc3OC3=CC(=O)C=CC32)c(C(=O)O)c1)NCCCOc1cccc(CN2CCCCC2)c1 (stereo not given) and answer again.
Reply: false (0)

Ask: Now consider N#CN/C(=N\CCCNc1ccc([N+](=O)[O-])c2nonc12)NCCCOc1cccc(CN2CCCCC2)c1 and answer again.
Reply: true (1)

Ask: Now consider CN(C)c1cccc2c(S(=O)(=O)NCC/N=C(\NC#N)NCCCOc3cccc(CN4CCCCC4)c3)cccc12 and answer again.
Reply: false (0)
